Data credit: patent US9670211B2

System: RSV Long strain
ASSAY REMARKS: Viral Cytopathic Effect (CPE) Assay
Assay type: cell-based
CONDITION CONTEXT: human respiratory syncytial virus, 144 h; RSV Long strain (ATCC), cell viability after 6 days by Cell Counting kit-8
Recorded pEC50, one value per entry.
# reply with the number alone; pEC50 is -log10 of concentration in mol/L

Below: 6 compounds and their reported pEC50.
O=C1N(Cc2nc3cc(Cl)ccc3n2[C@H]2C[C@@H](O)C2)c2cnccc2C12CC2 ... 8.15
O=C1CC(n2c(CN3C(=O)C4(CC4)c4ccncc43)nc3cc(Cl)ccc32)CN1 (centres unmarked) ... 8.05
O=C1N(Cc2nc3cc(Cl)ccc3n2C2CCC(F)(F)C2)c2cnccc2C12CC2 (centres unmarked) ... 7.77
O=C1N(Cc2cc3cc(Cl)cnc3n2C2CCS(=O)(=O)C2)c2cnccc2C12CC2 (centres unmarked) ... 8.22
O=C1N(Cc2nc3cc(Cl)ccc3n2C2CCNCC2)c2cnccc2C12CC2 ... 7.11
O=C1NCCC1n1c(CN2C(=O)C3(CC3)c3ccncc32)nc2cc(Cl)ccc21 (centres unmarked) ... 6.79

Quickly give me recorded pEC50 for "O=C1N(Cc2nc3cc(Cl)ccc3n2C(CO)CO)c2cnccc2C12CC2" 6.91

Quickly give me recorded pEC50 for O=C1N(Cc2nc3cc(Cl)ccc3n2C2CCC(O)CC2)c2cnccc2C12CC2 (centres unmarked) 8.96
